- TARGET UNDER TEST: T1, IL10Rα/IL2Rγ receptor (human, UniProt Q13651 22-578; P31785 23-369)
- T1 sequence (looked up) 1: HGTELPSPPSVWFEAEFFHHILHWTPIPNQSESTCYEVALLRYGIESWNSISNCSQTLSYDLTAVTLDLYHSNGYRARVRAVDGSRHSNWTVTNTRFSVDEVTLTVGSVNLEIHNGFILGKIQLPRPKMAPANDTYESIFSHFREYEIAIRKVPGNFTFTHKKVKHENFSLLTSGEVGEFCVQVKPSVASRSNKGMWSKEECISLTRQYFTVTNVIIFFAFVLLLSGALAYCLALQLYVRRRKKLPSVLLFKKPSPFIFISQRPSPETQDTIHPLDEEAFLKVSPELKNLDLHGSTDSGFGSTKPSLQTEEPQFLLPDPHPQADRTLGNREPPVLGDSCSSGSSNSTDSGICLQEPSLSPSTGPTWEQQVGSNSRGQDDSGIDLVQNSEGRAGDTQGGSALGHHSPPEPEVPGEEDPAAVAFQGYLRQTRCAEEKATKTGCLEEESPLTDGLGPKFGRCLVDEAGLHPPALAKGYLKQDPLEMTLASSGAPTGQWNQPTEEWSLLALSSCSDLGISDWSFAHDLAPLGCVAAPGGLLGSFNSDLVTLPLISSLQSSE
- T1 sequence (looked up) 2: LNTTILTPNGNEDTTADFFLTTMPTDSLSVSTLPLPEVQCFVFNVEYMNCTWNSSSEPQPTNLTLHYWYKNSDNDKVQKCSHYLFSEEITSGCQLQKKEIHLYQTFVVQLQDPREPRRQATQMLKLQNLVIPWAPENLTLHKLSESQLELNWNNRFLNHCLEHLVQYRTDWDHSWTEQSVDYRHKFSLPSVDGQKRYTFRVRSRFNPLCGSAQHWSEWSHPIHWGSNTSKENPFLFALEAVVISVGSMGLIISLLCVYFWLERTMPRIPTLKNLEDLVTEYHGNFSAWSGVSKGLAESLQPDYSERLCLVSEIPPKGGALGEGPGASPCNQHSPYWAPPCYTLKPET
- METHOD NOTES: cell-based or functional assay
RECORDED METRIC: pSTAT3 MFI, B cells, 100 nM (unstimulated 1193.5) (MFI)
Unit MFI implied. Number only.

| BINDER | VALUE UNITS | TEST RESULT |
| --- | --- | --- |
| DR395(DR229-DR239) (bispecific antibody) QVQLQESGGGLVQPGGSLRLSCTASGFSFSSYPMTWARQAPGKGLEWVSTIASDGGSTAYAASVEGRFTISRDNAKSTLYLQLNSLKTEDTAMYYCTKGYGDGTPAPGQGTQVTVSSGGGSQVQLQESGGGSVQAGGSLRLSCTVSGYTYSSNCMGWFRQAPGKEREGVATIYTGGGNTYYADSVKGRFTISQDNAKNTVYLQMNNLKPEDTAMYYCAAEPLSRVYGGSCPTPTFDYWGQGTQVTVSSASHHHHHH | MFI | 1360 |
| DR441(DR236-DR231) (bispecific antibody) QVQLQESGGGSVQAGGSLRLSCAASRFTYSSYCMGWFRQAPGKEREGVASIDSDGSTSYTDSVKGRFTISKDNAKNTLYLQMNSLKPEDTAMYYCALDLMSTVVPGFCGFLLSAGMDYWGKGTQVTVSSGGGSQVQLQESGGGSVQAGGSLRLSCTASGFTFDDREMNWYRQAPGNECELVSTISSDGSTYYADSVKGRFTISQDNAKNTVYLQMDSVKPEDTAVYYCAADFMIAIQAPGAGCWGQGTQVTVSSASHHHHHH | MFI | 1470 |
| DR471(DR241-DR231) (bispecific antibody) QVQLQESGGGSVQAGGSLRLSCAASGYSNCSYDMTWYRQAPGKEREFVSAIHSDGSTRYADSVKGRFFISQDNAKNTVYLQMNSLKPEDTAMYYCKTDPLHCRAHGGSWYSVRANYWGQGTQVTVSSGGGSQVQLQESGGGSVQAGGSLRLSCTASGFTFDDREMNWYRQAPGNECELVSTISSDGSTYYADSVKGRFTISQDNAKNTVYLQMDSVKPEDTAVYYCAADFMIAIQAPGAGCWGQGTQVTVSSASHHHHHH | MFI | 1280 |

Okay, next one:
Prompt: Identify measured pSTAT3 MFI, B cells, 100 nM (unstimulated 1193.5) corresponding to DR465(DR240-DR231) (bispecific antibody) QVQLQESGGGSVQAGGSLRLSCGASGYTYSSYCMGWFRQVPGKEREGVAVIDSDGSTSYADSVKGRFTISKDNGKNTLYLQMNSLKPEDTAMYYCAADLGHYRPPCGVLYLGMDYWGKGTQVTVSSGGGSQVQLQESGGGSVQAGGSLRLSCTASGFTFDDREMNWYRQAPGNECELVSTISSDGSTYYADSVKGRFTISQDNAKNTVYLQMDSVKPEDTAVYYCAADFMIAIQAPGAGCWGQGTQVTVSSASHHHHHH
Completion: 1850
